EXPERIMENT_SUMMARY: growth inhibition, single agent or in combination, cell-based, chromothripsis tumors, cisplatin or BGB combos (AID 1671449);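 also: cells exposed for 96 hours; 0% = vehicle DMSO and 100% = killing by high DMSO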
DETAILS: LFS_MB_P medulloblastoma cells, measured here: combination with BGB IC40, at 0.005 µM
I'd be grateful if you could share measured inhibition for these entries.
Quick reminder: number only, in %, skip the unit.

Query: Return reported inhibition; argument: COc1cc(C=O)c([N+](=O)[O-])cc1OC
Response: -5.33

Query: What do you have for O=c1[nH]c([C@@H]2CCCN2)nc2c1oc1ccc(Cl)cc12 ?
Response: 94.4

Query: How about this compound: N=C1CCCN1Cc1[nH]c(=O)[nH]c(=O)c1Cl
Response: -21.4

Query: Thanks! And NC1CCC(N[C@@H]2C[C@H]2c2ccccc2)CC1 (stereo partly specified) ?
Response: -36.6

Query: Param item: O=C(COc1cccc2c(=O)[nH]ccc12)c1ccccc1
Response: -36.3

Query: Please give the result for CN(C)Cc1c(C(=O)NCCOc2ccc(C(=O)NO)cc2)oc2ccccc12 too.
Response: -6.96

Query: Now consider CCCCc1nc2cc(/C=C/C(=O)NO)ccc2n1CCN(CC)CC and answer again.
Response: 75.4

Query: Now consider O=C(/C=C/c1cccc(S(=O)(=O)Nc2ccccc2)c1)NO .
Response: -11.3

Query: Again, but for O=C(/C=C/c1ccc(CN(CCO)CCc2c[nH]c3ccccc23)cc1)NO
Response: -69.2

Query: Next up: CN[C@@H]1CN(c2ccc3c(=O)c(C(=O)O)cn(-c4nccs4)c3n2)C[C@H]1OC
Response: -41.7

Query: Can you handle COc1ccc(-n2c(SCCCN3C(=O)c4cccc5cccc(c45)C3=O)nnc2-c2ccncc2)cc1 next?
Response: -35.2
